Tested on: Fibroblast
PROTOCOL TEXT: Multiplex assay against human fibroblast
Assay type: toxicity, cell-based
PROTOCOL CONDITIONS: 12 h, 1 µM, compound concentration 1 uM, replicate 2
In plain terms, low Population Healthy Nuclei (%), meaning strictly below 70%, gives y, and everything else gives n.

{"COMPOUND": "C=CC(=O)Nc1cccc(C(=O)Nc2ccc(Nc3cc(-c4[nH]c(SC)nc4C)ccn3)cc2)c1", "LABEL CLASS": "n"}
{"COMPOUND": "O=C1NCN(c2ccccc2)C12CCN(CCCOc1ccc(F)cc1)CC2 [SPIRAMIDE]", "LABEL CLASS": "n"}
{"COMPOUND": "CNc1nc(NCc2ccc(NS(C)(=O)=O)cc2Cl)cc(-c2ccccn2)n1", "LABEL CLASS": "n"}
{"COMPOUND": "NC(=O)Nc1cc(-c2cccc(F)c2)sc1C(=O)N[C@H]1CCCNC1 [AZD-7762]", "LABEL CLASS": "y"}
{"COMPOUND": "Cc1nc(-c2cn3c(n2)-c2ccc(-c4cnn(C(C)(C)C(N)=O)c4)cc2OCC3)n(C(C)C)n1 [TASELISIB]", "LABEL CLASS": "y"}
{"COMPOUND": "C[C@@]1(C(=O)Nc2ccc(F)nc2)CCCN1c1nc(Nc2cc(C3CC3)n[nH]2)c2cccn2n1 [BMS-754807]", "LABEL CLASS": "y"}
{"COMPOUND": "CN1CCCC(n2nc(Cc3ccc(Cl)cc3)c3ccccc3c2=O)CC1.Cl (stereo not drawn) [AZELASTINE HYDROCHLORIDE]", "LABEL CLASS": "n"}
{"COMPOUND": "Cc1csc2c(N[C@@H](C)CN3CCN(S(=O)(=O)c4ccc(Cl)c(Cl)c4)CC3)ncnc12", "LABEL CLASS": "n"}

Criterion: Population Healthy Nuclei (%) strictly below 70%. Is it met by `C=CC(=O)Nc1ccc2ncnc(Nc3ccc(OCc4cccc(F)c4)c(Cl)c3)c2c1.Cc1ccc(S(=O)(=O)O)cc1` ?
n

Same again, this time with Cc1c(-c2ccc(O)cc2)n(Cc2ccc(OCCN3CCCCCC3)cc2)c2ccc(O)cc12 [BAZEDOXIFENE]
n

Same again, this time with `CN(C)C(=O)/C(C#N)=C/c1ccc(-c2nc3cnc4[nH]ccc4c3n2C2CCCCC2)o1`
n

---

Please provide measured Population Normal (%) for the entries that follow.
System: Fibroblast
PROTOCOL TEXT: Multiplex assay against human fibroblast
Assay type: toxicity, cell-based
PROTOCOL CONDITIONS: 48 h, 1 µM, compound concentration 1 uM, replicate 1
Answers are plain numbers, in %.

Consider the following illustrative entries.
{"MOLECULE": "CN(C)C(=O)/C(C#N)=C/c1ccc(-c2nc3cnc4[nH]ccc4c3n2C2CCCCC2)o1", "EXPERIMENTAL SYSTEM": "Fibroblast", "Population Normal (%)": 84}
{"MOLECULE": "C=CC(=O)Nc1cccc(C(=O)Nc2ccc(Nc3cc(-c4[nH]c(SC)nc4C)ccn3)cc2)c1", "EXPERIMENTAL SYSTEM": "Fibroblast", "Population Normal (%)": 88}

Consider the record given below.
// lookup Population Normal (%) for CN(C)C(=O)N[C@H]1CC[C@H](CCN2CCN(c3cccc(Cl)c3Cl)CC2)CC1.Cl [CARIPRAZINE HYDROCHLORIDE]
92
